- System: HBV (encapsidated HBV DNA, HepG2.2.15 cells)
- measurement.notes: HBV replication inhibition assay, BDNA assay in HepG2.2.15 cells
- Assay type: cell-based
- measurement.context: Hepatitis B virus, HepG2.2.15, Activity in BDNA-assay
pEC50: −log10 of the molar value.
outcome.measure: pEC50

q: Suppose we examine the compound C[C@@H]1Cc2nn3c(c2CN1C(=O)Nc1ccc(F)c(C#N)c1)C(=O)N(C)C[C@@H](COCC(F)F)C3 [Compound 134_D1] ; what pEC50 value has been reported?
a: 7.00 to 9.00

q: Suppose we examine the compound C[C@@H]1Cc2nn3c(c2CN1C(=O)Nc1ccc(F)c(C(F)(F)F)c1)C(=O)N(C)CC(F)(CO)C3 (single isomer, unassigned) [Compound 133_D1] ; what pEC50 value has been reported?
a: 7.00 to 9.00

q: Suppose we examine the compound COC(=O)C1CCn2nc3c(c2C(=O)N1C)CN(C(=O)Nc1ccc(F)c(Cl)c1)CC3 (stereo not shown) [Compound 057] ; what pEC50 value has been reported?
a: 6.30 to 7.00

q: Suppose we examine the compound CCOC(=O)C1(C)CN(C)C(=O)c2c3c(nn2C1)CCN(C(=O)Nc1ccc(F)c(Cl)c1)C3 (stereo not shown) [Compound 052] ; what pEC50 value has been reported?
a: 6.30 to 7.00

q: Suppose we examine the compound COC(=O)c1cn2nc3c(c2c(=O)n1C)CN(C(=O)Nc1ccc(F)c(Cl)c1)CC3 [Compound 040] ; what pEC50 value has been reported?
a: 6.30 to 7.00

q: Suppose we examine the compound CC(O)C1CN(C)C(=O)c2c3c(nn2C1)CCN(C(=O)Nc1ccc(F)c(Cl)c1)C3 (stereo not shown) [Compound 034] ; what pEC50 value has been reported?
a: 6.30 to 7.00

q: Suppose we examine the compound CN1CC(CCO)Cn2nc3c(c2C1=O)CN(C(=O)Nc1ccc(F)c(Cl)c1)CC3 (stereo not shown) [Compound 029] ; what pEC50 value has been reported?
a: 6.30 to 7.00

q: Suppose we examine the compound C[C@@H]1Cc2nn3c(c2CN1C(=O)Nc1ccc(F)c(C(F)(F)F)c1)C(=O)N(C)CC(CO)C3 (single isomer, unassigned) [Compound 081_D1] ; what pEC50 value has been reported?
a: 7.00 to 9.00

q: Suppose we examine the compound CN1CC(N2CCCCC2)Cn2nc3c(c2C1=O)CN(C(=O)Nc1ccc(F)c(Cl)c1)CC3 (stereo not shown) [Compound 055] ; what pEC50 value has been reported?
a: 6.30 to 7.00

q: Suppose we examine the compound CN1CCCCn2nc3c(c2C1=O)CN(C(=O)Nc1ccc(F)c(Cl)c1)CC3 [Compound 110] ; what pEC50 value has been reported?
a: 7.00 to 9.00

q: Suppose we examine the compound CCC(O)C1CN(C)C(=O)c2c3c(nn2C1)CCN(C(=O)Nc1ccc(F)c(Cl)c1F)C3 (single isomer, unassigned) [Compound 100_E1] ; what pEC50 value has been reported?
a: 7.00 to 9.00

q: Suppose we examine the compound C[C@@H]1Cc2nn3c(c2CN1C(=O)Nc1cc(Br)c(F)cc1F)C(=O)N(C)CC(CO)C3 (single isomer, unassigned) [Compound 085_D1] ; what pEC50 value has been reported?
a: 7.00 to 9.00

q: Suppose we examine the compound CC1CN(C)C(=O)c2c3c(nn2C1)C[C@@H](C)N(C(=O)Nc1ccc(F)c(Cl)c1)C3 (single isomer, unassigned) [Compound 080_D1] ; what pEC50 value has been reported?
a: 7.00 to 9.00

q: Suppose we examine the compound C[C@@H]1Cc2nn3c(c2CN1C(=O)Nc1ccc(F)c(C(F)(F)F)c1)C(=O)N(C)C[C@H](COCC(F)F)C3 [Compound 135_D2] ; what pEC50 value has been reported?
a: 7.00 to 9.00

q: Suppose we examine the compound C[C@@H]1Cc2nn3c(c2CN1C(=O)Nc1ccc(F)c(C#N)c1F)C(=O)N(C)CC(CO)C3 (single isomer, unassigned) [Compound 088_D1] ; what pEC50 value has been reported?
a: 7.00 to 9.00

q: Suppose we examine the compound CN1CC(N2CCOCC2)Cn2nc3c(c2C1=O)CN(C(=O)Nc1ccc(F)c(Cl)c1)CC3 (stereo not shown) [Compound 021] ; what pEC50 value has been reported?
a: 6.30 to 7.00

q: Suppose we examine the compound CN1CC(CNCC(F)(F)F)Cn2nc3c(c2C1=O)CN(C(=O)Nc1ccc(F)c(C(F)(F)F)c1)CC3 (stereo not shown) [Compound 121] ; what pEC50 value has been reported?
a: 7.00 to 9.00

q: Suppose we examine the compound CCOC1CN(C)C(=O)c2c3c(nn2C1)CCN(C(=O)Nc1ccc(F)c(Cl)c1)C3 (stereo not shown) [Compound 017] ; what pEC50 value has been reported?
a: 7.00 to 9.00

q: Suppose we examine the compound CN1CC(CNCC(F)F)Cn2nc3c(c2C1=O)CN(C(=O)Nc1ccc(F)c(Br)c1)CC3 (single isomer, unassigned) [Compound 130_E1] ; what pEC50 value has been reported?
a: 7.00 to 9.00

q: Suppose we examine the compound CCC(O)C1CN(C)C(=O)c2c3c(nn2C1)CCN(C(=O)Nc1ccc(F)c(Br)c1F)C3 (single isomer, unassigned) [Compound 101_E1] ; what pEC50 value has been reported?
a: 7.00 to 9.00

q: Suppose we examine the compound CN1CC(N2CCC2)Cn2nc3c(c2C1=O)CN(C(=O)Nc1ccc(F)c(Cl)c1)CC3 (stereo not shown) [Compound 023] ; what pEC50 value has been reported?
a: 7.00 to 9.00

q: Suppose we examine the compound CN(C)C(=O)C1CN(C)C(=O)c2c3c(nn2C1)CCN(C(=O)Nc1ccc(F)c(Cl)c1)C3 (stereo not shown) [Compound 032] ; what pEC50 value has been reported?
a: 6.30 to 7.00

q: Suppose we examine the compound CN1CC(F)Cn2nc3c(c2C1=O)CN(C(=O)Nc1ccnc(Br)c1F)CC3 (stereo not shown) [Compound 008] ; what pEC50 value has been reported?
a: 7.00 to 9.00

q: Suppose we examine the compound C[C@@H]1Cc2nn3c(c2CN1C(=O)Nc1ccc(F)c(Cl)c1)C(=O)N(CCO)CCC3 [Compound 049] ; what pEC50 value has been reported?
a: 7.00 to 9.00

q: Suppose we examine the compound CCC(O)C1CN(C)C(=O)c2c3c(nn2C1)CCN(C(=O)Nc1cc(F)c(F)c(F)c1F)C3 (single isomer, unassigned) [Compound 105_E1] ; what pEC50 value has been reported?
a: 7.00 to 9.00

q: Suppose we examine the compound O=C(Nc1ccc(F)c(Cl)c1)N1CCc2nn3c(c2C1)C(=O)N(CC(F)(F)F)CC(CO)C3 (stereo not shown) [Compound 051] ; what pEC50 value has been reported?
a: 7.00 to 9.00

q: Suppose we examine the compound CN1CCC(C(=O)O)n2nc3c(c2C1=O)CN(C(=O)Nc1ccc(F)c(Cl)c1)CC3 (stereo not shown) [Compound 113] ; what pEC50 value has been reported?
a: < 6.00

q: Suppose we examine the compound CN1C/C=C\Cn2nc3c(c2C1=O)CN(C(=O)Nc1ccc(F)c(Cl)c1)CC3 [Compound 111] ; what pEC50 value has been reported?
a: 7.00 to 9.00

This collection of values is drawn from patent US10975077B2.
